B1: Twister Ribozyme (parent)
chain: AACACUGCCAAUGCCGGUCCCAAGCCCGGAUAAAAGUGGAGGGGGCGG

Variants of: B1
Assay: self-cleavage, relative activity (ratio to wild type); higher = more cleavage; co-transcriptional
recordedEndpoint: self-cleavage
Form: value (number only, do not type unit).

Query: Which self-cleavage is listed for G13C C26G ?
Reply: 0.101

Query: Which self-cleavage is listed for A1U C27A ?
Reply: 0.0592

Query: Which self-cleavage is listed for G16U C25U ?
Reply: 0.809

Query: Which self-cleavage is listed for G7U G28C ?
Reply: 0.0665

Query: Which self-cleavage is listed for C19U C27A ?
Reply: 0.176

Query: Which self-cleavage is listed for C8A C27A ?
Reply: 0.0935

Query: Which self-cleavage is listed for C5U C8U ?
Reply: 0.398

Query: Which self-cleavage is listed for C21A U37G ?
Reply: 0.0471

Query: Which self-cleavage is listed for C25A C27U ?
Reply: 0.136

Query: Which self-cleavage is listed for C8A G17A ?
Reply: 0.12

Query: Which self-cleavage is listed for A34U A40U ?
Reply: 0.141

Query: Which self-cleavage is listed for A2G G24C ?
Reply: 0.0995

Query: Which self-cleavage is listed for U6C U12G ?
Reply: 0.465

Query: Which self-cleavage is listed for A11U U37G ?
Reply: 0.953

Query: Which self-cleavage is listed for A11C G28U ?
Reply: 0.563

Query: Which self-cleavage is listed for A10U C14G ?
Reply: 0.244

Query: Which self-cleavage is listed for A11G C21U ?
Reply: 0.12

Query: Which self-cleavage is listed for A10U G43C ?
Reply: 0.2

Query: Which self-cleavage is listed for G29C A30C ?
Reply: 0.971

Query: Which self-cleavage is listed for A2C G42A ?
Reply: 0.0532

Query: Which self-cleavage is listed for G17C C46U ?
Reply: 0.144

Query: Which self-cleavage is listed for A10G A11U ?
Reply: 1.09

Query: Which self-cleavage is listed for G7A C26A ?
Reply: 0.0788

Query: Which self-cleavage is listed for C3A C20G ?
Reply: 0.0637

Query: Which self-cleavage is listed for A40U G43A ?
Reply: 0.132

Query: Which self-cleavage is listed for A1U C3A ?
Reply: 0.222

Query: Which self-cleavage is listed for G16U A40U ?
Reply: 0.137

Query: Which self-cleavage is listed for A1C C14A ?
Reply: 0.222

Query: Which self-cleavage is listed for A32G C46U ?
Reply: 0.933
